System: Staphylococcus aureus 42D
METHOD DESCRIPTION: Bactericidal assay (LD99.9), S. aureus
Assay type: cell-based
CONDITION DESCRIPTION: 10 mM phosphate buffer pH 7.0 with 1% TSB, 2 h, 37°C
Where a SMILES comes first, the peptide text is derived from it. Bridges are numbered along the chain shown (N, C = ends).
EXPERIMENTAL READOUT: 99.9% Lethal Dose Concentration (LD99.9) S. aureus (µM)
Give just the numeric value; µM need not be written.

COMPOUND	ASSAY TARGET	TEST VALUE
CC(=O)N[C@@H](CCCNC(=N)N)C(=O)N[C@@H](CCCNC(=N)N)C(=O)N[C@@H](Cc1c[nH]c2ccccc12)C(=O)N[C@@H](CCC(N)=O)C(=O)N[C@@H](Cc1c[nH]c2ccccc12)C(=O)N[C@@H](CCCNC(=N)N)C(N)=O [Lfc4, CH3CO-RRWQWR-NH2] (Ac-RRWQWR-NH2)	Staphylococcus aureus 42D	60

Moving on to the next compound.
Query (compound): CC(=O)N[C@H]1CSSC[C@@H](C(N)=O)NC(=O)[C@H](Cc2ccccc2)NC(=O)[C@H](CCCNC(=N)N)NC(=O)[C@H](Cc2c[nH]c3ccccc23)NC(=O)[C@H](Cc2c[nH]c3ccccc23)NC(=O)[C@H](CCCNC(=N)N)NC(=O)[C@H](CCCNC(=N)N)NC1=O [Com7, CH3CO-CRRWWRFC-NH2] (Ac-CRRWWRFC-NH2; disulfide 1-8) ; field requested: 99.9% Lethal Dose Concentration (LD99.9) S. aureus
1.9
